Every entry's value here was drawn from ChEMBL document CHEMBL4376859.

# maps each entry to its Km
Test system: nitroreductase nfsA
protocol description: Substrate activity at Escherichia coli nitroreductase nfsA assessed as Km using NADPH as cofactor in Tris-Cl buffer at pH 7.5 by spectrophotometry based Michaelis-Menten plot analysis
Format: ADME
assay setup: Escherichia coli nitroreductase nfsA enzyme
A number alone suffices; assume µM.

# smiles, Km, µM
measured = [
    ("NC(=O)c1cc(N2CC2)c([N+](=O)[O-])cc1[N+](=O)[O-]", 220),
]

Shifting focus to the molecule that follows.
Determine its reported Km: CS(=O)(=O)OCCN(CCBr)c1c(C(=O)NCCO)cc([N+](=O)[O-])cc1[N+](=O)[O-] 100

---

# maps each entry to its viability at 24 h, up to 150 µM
protocol description: Cytotoxicity against human HUVEC cells assessed as cell viability at 9 to 150 uM after 24 hrs by MTT assay relative to control
Format: cell-based
assay setup: read-out: Activity

Worked examples follow.
# smiles, viability at 24 h, up to 150 µM
records = [
    ("O=[N+]([O-])c1ccc(NC2CCCCC2)c([N+](=O)[O-])c1", "> 80%"),
    ("CCNc1ccc([N+](=O)[O-])cc1[N+](=O)[O-]", "> 80%"),
    ("O=[N+]([O-])c1ccc(N2CCOCC2)c([N+](=O)[O-])c1", "> 80%"),
    ("COCCC(=O)Oc1cc(N2CCOCC2)c([N+](=O)[O-])cc1[N+](=O)[O-]", "51 to 80%"),
    ("O=[N+]([O-])c1ccc(N2CCCCC2)c([N+](=O)[O-])c1", "> 80%"),
    ("CC(C)Nc1ccc([N+](=O)[O-])cc1[N+](=O)[O-]", "> 80%"),
    ("CC(C)CC(=O)Oc1cc(N2CCOCC2)c([N+](=O)[O-])cc1[N+](=O)[O-]", "51 to 80%"),
    ("O=[N+]([O-])c1ccc(Nc2ccccc2)c([N+](=O)[O-])c1", "> 80%"),
]

Determine its reported viability at 24 h, up to 150 µM: O=[N+]([O-])c1ccc(Nc2cc(F)cc(F)c2)c([N+](=O)[O-])c1 51 to 80%

Determine its reported viability at 24 h, up to 150 µM: O=[N+]([O-])c1ccc(Nc2ccc3ccccc3c2)c([N+](=O)[O-])c1 > 80%

---

protocol description: Cytotoxicity against human HUVEC cells assessed as cell viability at 9 to 150 uM after 48 hrs by MTT assay relative to control
Type: cell-based
assay setup: read-out: Activity
value kind: viability at 48 h, up to 150 µM

# molecule, result
records = [
    ("NC(=O)c1cc(N2CC2)c([N+](=O)[O-])cc1[N+](=O)[O-]", "> 80%"),
    ("O=[N+]([O-])c1ccc(Nc2ccccc2)c([N+](=O)[O-])c1", "> 80%"),
    ("O=[N+]([O-])c1ccc(Nc2ccc3ccccc3c2)c([N+](=O)[O-])c1", "> 80%"),
    ("CCC(=O)Nc1cc(N2CCOCC2)c([N+](=O)[O-])cc1[N+](=O)[O-]", "51 to 80%"),
    ("O=[N+]([O-])c1ccc(N2CCCCC2)c([N+](=O)[O-])c1", "51 to 80%"),
    ("CCC(=O)Oc1cc(N2CCOCC2)c([N+](=O)[O-])cc1[N+](=O)[O-]", "51 to 80%"),
]

Determine its reported viability at 48 h, up to 150 µM: O=[N+]([O-])c1ccc(N2CCCC(O)C2)c([N+](=O)[O-])c1 (configuration not stated) > 80%

Determine its reported viability at 48 h, up to 150 µM: O=[N+]([O-])c1ccc(N2CCC[C@H]2CO)c([N+](=O)[O-])c1 > 80%

Determine its reported viability at 48 h, up to 150 µM: CCNc1ccc([N+](=O)[O-])cc1[N+](=O)[O-] > 80%

Determine its reported viability at 48 h, up to 150 µM: O=[N+]([O-])c1cc([N+](=O)[O-])c(Nc2ccc(Cl)cc2)cc1Nc1ccc(Cl)cc1 51 to 80%

Determine its reported viability at 48 h, up to 150 µM: CN(C)C(=O)Oc1cc(N2CCOCC2)c([N+](=O)[O-])cc1[N+](=O)[O-] 51 to 80%

Determine its reported viability at 48 h, up to 150 µM: Nc1ccccc1Nc1ccc([N+](=O)[O-])cc1[N+](=O)[O-] > 80%

Determine its reported viability at 48 h, up to 150 µM: O=[N+]([O-])c1ccc(N2CCOCC2)c([N+](=O)[O-])c1 > 80%

Determine its reported viability at 48 h, up to 150 µM: COc1cccc(Nc2ccc([N+](=O)[O-])cc2[N+](=O)[O-])c1 > 80%

Determine its reported viability at 48 h, up to 150 µM: O=[N+]([O-])c1ccc(Nc2cc(F)cc(F)c2)c([N+](=O)[O-])c1 51 to 80%

Determine its reported viability at 48 h, up to 150 µM: CC(C)CC(=O)Nc1cc(N2CCOCC2)c([N+](=O)[O-])cc1[N+](=O)[O-] 51 to 80%

Determine its reported viability at 48 h, up to 150 µM: CC(C)Nc1ccc([N+](=O)[O-])cc1[N+](=O)[O-] > 80%

Determine its reported viability at 48 h, up to 150 µM: COCCC(=O)Oc1cc(N2CCOCC2)c([N+](=O)[O-])cc1[N+](=O)[O-] 51 to 80%

Determine its reported viability at 48 h, up to 150 µM: O=[N+]([O-])c1cc([N+](=O)[O-])c(Nc2ccc(S(=O)(=O)O)cc2)cc1Nc1ccc(S(=O)(=O)O)cc1 > 80%

Determine its reported viability at 48 h, up to 150 µM: CC(C)CC(=O)Oc1cc(N2CCOCC2)c([N+](=O)[O-])cc1[N+](=O)[O-] 51 to 80%

Determine its reported viability at 48 h, up to 150 µM: O=C(CC(F)(F)F)Nc1cc(N2CCOCC2)c([N+](=O)[O-])cc1[N+](=O)[O-] 51 to 80%

Determine its reported viability at 48 h, up to 150 µM: O=[N+]([O-])c1ccc(NC2CCCCC2)c([N+](=O)[O-])c1 > 80%

---

# maps each entry to its log10 IC50
Tested on: PC-3
protocol description: Cytotoxicity against human PC3 cells […] Staphylococcus saprophyticus nitroreductase NtrB assessed as reduction in cell viability in presence of NADH as cofactor after 48 hrs by SRB assay
Type: functional, cell-based
assay setup: PC-3, 48 h
Lab note - IC50 converted to log10 from values in µM.

Worked examples follow.
# compound, test system, log10 IC50
records = [
    ("O=[N+]([O-])c1ccc(Nc2ccc3ccccc3c2)c([N+](=O)[O-])c1", "PC-3", 0.71),
    ("CCNc1ccc([N+](=O)[O-])cc1[N+](=O)[O-]", "PC-3", 0.81),
    ("O=[N+]([O-])c1ccc(N2CCCC(O)C2)c([N+](=O)[O-])c1 (stereo not given)", "PC-3", 2.18),
    ("CC(C)Nc1ccc([N+](=O)[O-])cc1[N+](=O)[O-]", "PC-3", 0.99),
]

Determine its reported log10 IC50: Nc1ccccc1Nc1ccc([N+](=O)[O-])cc1[N+](=O)[O-] 1.18

Determine its reported log10 IC50: NC(=O)c1cc(N2CC2)c([N+](=O)[O-])cc1[N+](=O)[O-] [TRETAZICAR] -2.75

---

# maps each entry to its Retention_time
test system: Putative nitroreductase (Staphylococcus saprophyticus subsp. saprophyticus (strain ATCC 15305 / DSM20229 / NCIMB 8711 / NCTC 7292 / S-41))
Sequence (Q4A0P1 whole entry): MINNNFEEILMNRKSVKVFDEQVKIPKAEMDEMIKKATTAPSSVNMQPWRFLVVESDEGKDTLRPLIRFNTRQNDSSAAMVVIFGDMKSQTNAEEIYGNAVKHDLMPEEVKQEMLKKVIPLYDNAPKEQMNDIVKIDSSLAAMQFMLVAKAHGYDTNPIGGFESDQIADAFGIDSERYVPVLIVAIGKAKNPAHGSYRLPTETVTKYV
protocol description: Substrate activity at Staphylococcus saprophyticus nitroreductase expressed in Escherichia coli BL21 (DE3) assessed as retention time by HPLC analysis
Assay type: ADME
A number alone suffices; assume min.

# smiles, Retention_time / min
data = [
    ("O=[N+]([O-])c1ccc(NC2CCCCC2)c([N+](=O)[O-])c1", 20.58),
    ("O=[N+]([O-])c1ccc(Nc2ccc3ccccc3c2)c([N+](=O)[O-])c1", 20.13),
    ("O=[N+]([O-])c1ccc(Nc2ccccc2)c([N+](=O)[O-])c1", 18.41),
    ("O=C(CC(F)(F)F)Nc1cc(N2CCOCC2)c([N+](=O)[O-])cc1[N+](=O)[O-]", 21.8),
]

Shifting focus to the compound that follows.
Determine its reported Retention_time: CCC(=O)Nc1cc(N2CCOCC2)c([N+](=O)[O-])cc1[N+](=O)[O-] 20.95
